- measurement target: recombinant factor H binding protein (FHbp) ID 1 (Neisseria meningitidis serogroup B …, UniProt Q9JXV4)
- Sequence (Q9JXV4 20-274): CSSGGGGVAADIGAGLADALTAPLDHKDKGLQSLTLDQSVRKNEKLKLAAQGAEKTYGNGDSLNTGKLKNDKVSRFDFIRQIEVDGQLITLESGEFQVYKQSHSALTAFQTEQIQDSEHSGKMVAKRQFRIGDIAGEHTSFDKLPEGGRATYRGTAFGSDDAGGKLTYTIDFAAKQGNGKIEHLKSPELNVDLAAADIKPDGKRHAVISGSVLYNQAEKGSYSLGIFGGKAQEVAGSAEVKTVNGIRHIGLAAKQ
- method: SPR
measurement kind: Kd (nM)
Field: numeric (nM). Do not append units.

If you can, please state the reported Kd value of human anti-FHbp Fab 2A (Fab, V domains shown) VH: QVQLQQSGSGLVKPSQTLSLTCTVSGGSINIGDRYWSWLRQSPGKGLEWIGYIDYSGDTYYNSSLKSRAAISIDTSNKQFSLKLSSVTAADTAVYYCARGSSDFSSGYFFDYWGQGTLVTVSS VL: ETTLTQSPATLSVSPGERAILSCRDSQSVSSNLAWYQQKPGQAPRLLIFGASTRATGIPARFSGSGSGTEFTLTISSLQSEDFAVYYCQQYNNWLSFGQGTKLEIK .
115
